System: Escherichia coli
Assay: Antimicrobial activity against Escherichia coli ATCC […] after 18 to 24 hrs by alamar blue assay
Format: functional
Conditions: Escherichia coli; read-out: MIC
Known MIC of a selection of compounds
experimental.readout: MIC

- Cc1ccc(C(C)C)c(Oc2ccccc2NC(=O)c2cc(Br)cc(Br)c2O)c1: 8 µg/mL
- O=C1c2cccc3c([N+](=O)[O-])ccc(c23)C(=O)N1Cc1cccnc1: > 256 µg/mL
- CCOc1ccc2nc(NC(=O)c3ccc([N+](=O)[O-])o3)sc2c1: 256 µg/mL
- O=C1c2cccc3cccc(c23)C(=O)N1CCN1CCN(CCc2ccccc2)CC1: > 256 µg/mL
- O=C(Nc1nnc(-c2ccc(Cl)cc2)o1)c1cccc(Br)c1: > 256 µg/mL
- Cn1c(/C=C/c2ccc([N+](=O)[O-])o2)nc2ccccc2c1=O: 16 µg/mL
- Cc1ccc(C(=O)c2cc(NC(=O)c3cc(I)cc(I)c3O)ccc2Cl)cc1: 8 µg/mL
- O=C(Nc1ccc(NS(=O)(=O)c2ccc(Cl)cc2)cc1Cl)c1cc(Cl)ccc1O: 8 µg/mL
- CCCc1cc(O)nc(N2NC(C)=CC2NC(=O)c2cccs2)n1 (stereo not given): > 256 µg/mL
- O=c1c2ccccc2nc(/C=C/c2ccc([N+](=O)[O-])o2)n1CCCO: 16 µg/mL
- CCc1c(C)nc(N2NC(C)=CC2NC(=O)c2ccccc2I)nc1O (stereo not given): > 256 µg/mL
- Cc1c(CC(=O)N2CCC[C@H]2C(=O)O)c(=O)oc2c(C)c3occ(-c4ccc(Cl)cc4)c3cc12: > 256 µg/mL
- CNC(=O)c1ccsc1NC(=O)c1ccc([N+](=O)[O-])o1: 256 µg/mL
- Cc1c(CC(=O)N2CCC(C(=O)O)CC2)c(=O)oc2c(C)c3occ(-c4ccc(Cl)cc4)c3cc12: > 256 µg/mL
- CCC(NC(=O)Cc1c(C)c2cc3c(-c4ccc(Cl)cc4)coc3c(C)c2oc1=O)C(=O)O (stereo not given): > 256 µg/mL
- CCCC(NC(=O)Cc1c(C)c2cc3c(-c4ccc(Cl)cc4)coc3c(C)c2oc1=O)C(=O)O (stereo not given): > 256 µg/mL
- O=C1c2cc([N+](=O)[O-])cc3cc([N+](=O)[O-])cc(c23)C(=O)N1Nc1ccc(Cl)cc1: > 256 µg/mL
- O=C(Nc1ccc(-c2nc3ccccc3[nH]2)cc1)c1ccc([N+](=O)[O-])o1: 256 µg/mL
- O=C(Nc1nnc(-c2ccccc2Cl)o1)c1nc2ccccc2s1: > 256 µg/mL
- Cc1c(CC(=O)N2CCC(C(=O)O)(c3ccccc3)CC2)c(=O)oc2c(C)c3occ(-c4ccc(Cl)cc4)c3cc12: > 256 µg/mL
- Cc1c(CCC(=O)O)c(=O)oc2c(C)c3occ(-c4ccc(Cl)cc4)c3cc12: > 256 µg/mL
- CCN1C(=O)/C(=C/c2ccc([N+](=O)[O-])o2)SC1=S: 16 µg/mL
- CCCc1cc(O)nc(N2NC(C)=CC2NC(=O)c2ccccc2F)n1 (stereo not given): > 256 µg/mL
- O=C(Nc1nnc(-c2cccc(Br)c2)o1)c1ccc(F)cc1: > 256 µg/mL
- CCOc1ccccc1N(C)S(=O)(=O)c1ccc2c(c1)NC(=O)C(C)S2 (stereo not given): > 256 µg/mL
- CSc1nc2ccc(NC(=O)c3ccc([N+](=O)[O-])o3)cc2s1: 256 µg/mL
- Cc1ccc(-c2coc3c(C)c4oc(=O)c(CCC(=O)O)c(C)c4cc23)cc1: > 256 µg/mL
- Cc1ccc(C(C)C)c(Oc2ccc(Cl)cc2NC(=O)c2cc(I)cc(I)c2O)c1: 8 µg/mL
- O=C(Nc1ccc(Oc2ccc(Cl)c3cccnc23)c(Cl)c1)c1cc(Br)cc(Br)c1O: 8 µg/mL
- O=C(Nc1nnc(-c2ccc(Br)cc2)o1)c1cccc(C(F)(F)F)c1: > 256 µg/mL
- CSC[C@H](NC(=O)Cc1c(C)c2cc3c(-c4ccc(Cl)cc4)coc3c(C)c2oc1=O)C(=O)O: > 256 µg/mL
- COc1ccccc1N1C(=O)c2cc([N+](=O)[O-])cc3cc([N+](=O)[O-])cc(c23)C1=O: > 256 µg/mL
- O=C(c1ccc(Cl)cc1)c1ccc(NC(=O)c2cc(Br)cc(Br)c2O)cc1Cl: 8 µg/mL
- Cc1c(CC(=O)N[C@@H](CCCNC(N)=O)C(=O)O)c(=O)oc2c(C)c3occ(-c4ccc(Cl)cc4)c3cc12: > 256 µg/mL
- Cc1ccccc1NS(=O)(=O)c1ccc2c(c1)NC(=O)C(C)S2 (stereo not given): > 256 µg/mL
- Cc1c(CC(=O)N2CCC(C(=O)O)CC2)c(=O)oc2c(C)c3occ(-c4ccc(F)cc4)c3cc12: > 256 µg/mL
- CCc1cc(O)nc(N2NC(C)=CC2NC(=O)c2ccccc2Cl)n1 (stereo not given): > 256 µg/mL
- O=C(c1ccc(Cl)cc1)c1cc(NC(=O)c2cc(Cl)cc(Br)c2O)c(Cl)cc1Cl: 8 µg/mL
- Cc1ccc(-c2nnc(NC(=O)c3nc4ccccc4s3)o2)c(C)c1: > 256 µg/mL
- O=C(Nc1cc(Cl)c(Cl)c(Cl)c1)c1cc(Br)cc(Br)c1O: 8 µg/mL
